System: NCI-H929 cells
METHOD SUMMARY: Cell viability assay (NCI-H929 cells), CCK-8
Format: cell-based
PROTOCOL CONDITIONS: Homo sapiens, NCI-H929, 24 h, 5% FBS
pIC50: −log10 of the molar value.
ENDPOINT LABEL: pIC50

Study these solved cases before continuing.
COMPOUND	pIC50
Cc1c(C(=O)O)n2c3ccc(Cl)c(c13)-c1c(nn(C)c1C(F)F)CN(S(C)(=O)=O)Cc1cc(n(C)n1)CSc1cc(c3ccc(F)cc3c1)OCCC2 [Cpd. No. 45]	6.60
Cc1c(C(=O)O)n2c3ccc(C#N)c(c13)-c1c(nn(C)c1C)CSCc1cc(n(C)n1)CSc1cc(c3ccc(F)cc3c1)OCCC2 [Cpd. No. 20]	6.21
Cc1c(C(=O)O)n2c3ccc(Cl)c(c13)-c1c(nn(C)c1C)CN(S(C)(=O)=O)Cc1cc(n(C)n1)CSc1cc(c3ccccc3c1)OCCC2 [Cpd. No. 46]	6.52
CNC(=O)Cn1nc(C)c2c1CSCc1cc(n(C)n1)CSc1cc(c3ccccc3c1)OCCCn1c(C(=O)O)c(C)c3c-2c(Cl)ccc31 [Cpd. No. 26]	6.52
Cc1c(C(=O)O)n2c3ccc(Cl)c(c13)-c1c(nn(C)c1C)CN(C(=O)c1ncco1)Cc1cc(n(C)n1)CSc1cc(c3ccc(F)cc3c1)OCCC2 [Cpd. No. 43]	6.21

A: Cc1c(C(=O)O)n2c3ccc(Cl)c(c13)-c1c(nn3c1COCC3)CN(S(=O)(=O)c1ccccc1)Cc1cc(n(C)n1)CSc1cc(c3ccc(F)cc3c1)OCCC2 [Cpd. No. 29]
B: Cc1c2c(nn1C)CSCc1cc(n(C)n1)CSc1cc(c3ccc(F)cc3c1)OCCCn1c(C(=O)O)c(CN(C)S(=O)(=O)C(F)(F)F)c3c-2c(Cl)ccc31 [Cpd. No. 23]
C: Cc1c(C(=O)O)n2c3ccc(Cl)c(c13)-c1c(nn(C)c1C(F)F)CSCc1cc(n(C)n1)CSc1cc(c3ccc(F)cc3c1)OCCC2 [Cpd. No. 18]
D: Cc1c(C(=O)O)n2c3ccc(F)c(c13)-c1c(nn(C)c1C)CSCc1cc(n(C)n1)CSc1cc(c3ccc(F)cc3c1)OCCC2 [Cpd. No. 21]
Order the entries by their reported pIC50, beginning at the minimum. A complete answer lists every label in the requested sequence.
B, A, D, C
(B: 5.97, A: 6.21, D: 6.77, C: 7.20)

----------
METHOD SUMMARY: Microsome clearance assay, mouse
Type: in vitro ADME
PROTOCOL CONDITIONS: male, CD-1, mouse, pooled liver microsomes, pH 7.4, mouse liver microsomes, 0.5 mg/ml protein, 1 mM NADPH, 60 minutes, read-out: Mouse Liver Microsome Clint (μL/min/mg protein)
ENDPOINT LABEL: microsomal CLint at 5 μM (µL/min/mg)

Study these solved cases before continuing.
COMPOUND	DISPLAY UNIT	microsomal CLint at 5 μM
Cc1c(C(=O)O)n2c3ccc(Cl)c(c13)-c1c(nn(C)c1C(F)F)CN(S(C)(=O)=O)Cc1cc(n(C)n1)CSc1cc(c3ccc(F)cc3c1)OCCC2 [Cpd. No. 45]	µL/min/mg	21.4
Cc1c2c(nn1C)CSCc1cc(n(C)n1)CSc1cc(c3ccc(F)cc3c1)OCCCn1c(C(=O)O)c(C(F)(F)F)c3c-2c(Cl)ccc31 [Cpd. No. 24]	µL/min/mg	28.8
Cc1c(C(=O)O)n2c3ccc(Cl)c(c13)-c1c(nn(C)c1C)CN(Cc1ncco1)Cc1cc(n(C)n1)CSc1cc(c3ccc(F)cc3c1)OCCC2 [Cpd. No. 52]	µL/min/mg	53
COCCN1Cc2cc(n(C)n2)CSc2cc(c3ccc(F)cc3c2)OCCCn2c(C(=O)O)c(C)c3c(c(Cl)ccc32)-c2c(nn3c2COCC3)C1 [Cpd. No. 50]	µL/min/mg	65.2

I: Cc1c(C(=O)O)n2c3ccc(Cl)c(c13)-c1c(nn(C)c1C)CN(S(=O)(=O)C(F)(F)F)Cc1cc(n(C)n1)CSc1cc(c3ccc(F)cc3c1)OCCC2 [Cpd. No. 35]
II: Cc1ccc2c3c(C)c(C(=O)O)n2CCCOc2cc(cc4cc(F)ccc24)SCc2cc(nn2C)CSCc2nn(C)c(C)c2-c13 [Cpd. No. 22]
Sorting ascending by microsomal CLint at 5 μM, which comes first: I or II ? // return label of chosen record
II

----------
METHOD SUMMARY: Microsome clearance assay, rat
Type: in vitro ADME
PROTOCOL CONDITIONS: rat liver microsomes, 0.5 mg/ml protein, 5 μM, 1 mM NADPH, 60 minutes
Description: Representative Compounds of the Disclosure were tested in a microsome clearance assay. Pooled liver microsomes (20 mg/ml) from human, male Wister rat, and male CD-1 mouse were obtained from BD Bioscience (Franklin Lakes, N.J. USA). […] The samples were analyzed by Applied Biosystems API 3200 Q TRAP LC/MS/MS system using electrospray ionization mode.
ENDPOINT LABEL: Rat Liver Microsome Clint (μL/min/mg protein)

Study these solved cases before continuing.
MOLECULE	REPORTED VALUE
Cc1c(C(=O)O)n2c3ccc(Cl)c(c13)-c1c(nn(C)c1C)CSCc1cc(n(C)n1)CSc1cc(c3ccc(F)cc3c1)OCCC2 (atropisomer, axis not shown) [Cpd. No. 15]	19.6
Cc1c(C(=O)O)n2c3ccc(Cl)c(c13)-c1c(nn(C)c1C)CN(S(C)(=O)=O)Cc1cc(n(C)n1)CSc1cc(c3ccc(F)cc3c1)OCCC2 [Cpd. No. 34]	13.0
Cc1c(C(=O)O)n2c3ccc(Cl)c(c13)-c1c(nn(C)c1C)CN(S(C)(=O)=O)Cc1cc(n(C)n1)CSc1cc(c3ccc(F)cc3c1)OCCC2 (atropisomer, axis not shown) [Cpd. No. 33]	8.6

A: Cc1c(C(=O)O)n2c3ccc(Cl)c(c13)-c1c(nn(C)c1C)CSCc1cc(n(C)n1)CSc1cc(c3ccc(F)cc3c1)OCCC2 (atropisomer, axis not shown) [Cpd. No. 16]
B: Cc1c(C(=O)O)n2c3ccc(Cl)c(c13)-c1c(nn(C)c1C)CSCc1cc(n(C)n1)CSc1cc(c3ccc(F)cc3c1)OCCC2 [Cpd. No. 14]
Sorting ascending by Rat Liver Microsome Clint (μL/min/mg protein), which comes first: A or B ? // return label of chosen record
B
(B: 27.2 μL/min/mg protein, A: 64.6 μL/min/mg protein)

----------
METHOD SUMMARY: Microsome clearance assay, human
Format: in vitro ADME
PROTOCOL CONDITIONS: human, pooled liver microsomes, pH 7.4, human liver microsomes, 0.5 mg/ml protein, 1 mM NADPH, 60 minutes, read-out: Human Liver Microsome Clint (μL/min/mg protein)
ENDPOINT LABEL: microsomal CLint at 5 μM (µL/min/mg)

A: Cc1c(C(=O)O)n2c3ccc(Cl)c(c13)-c1c(nn(C)c1C)CN(S(C)(=O)=O)Cc1cc(n(C)n1)CSc1cc(c3ccc(F)cc3c1)OCCC2 [Cpd. No. 32]
B: Cc1c(C(=O)O)n2c3ccc(Cl)c(c13)-c1c(nn3c1COCC3)CSCc1cc(n(C)n1)CSc1cc(c3ccccc3c1)OCCC2 [Cpd. No. 1]
C: Cc1c(C(=O)O)n2c3ccc(Cl)c(c13)-c1c(nn(C)c1C)CSCc1cc(n(C(C)C)n1)CSc1cc(c3ccc(F)cc3c1)OCCC2 [Cpd. No. 17]
// rank the listed compounds by microsomal CLint at 5 μM, lowest value first A complete answer lists every label in the requested sequence.
A, C, B
(A: 4.4 µL/min/mg, C: 19.4 µL/min/mg, B: 35.2 µL/min/mg)

----------
METHOD SUMMARY: Microsome clearance assay, rat
Type: in vitro ADME
PROTOCOL CONDITIONS: male, Wister, rat, pooled liver microsomes, pH 7.4, rat liver microsomes, 0.5 mg/ml protein, 1 mM NADPH, 60 minutes, read-out: Rat Liver Microsome Clint (μL/min/mg protein)
ENDPOINT LABEL: microsomal CLint at 5 μM (µL/min/mg)

Study these solved cases before continuing.
COMPOUND	DISPLAY UNIT	microsomal CLint at 5 μM
Cc1c(C(=O)O)n2c3ccc(Cl)c(c13)-c1c(nn(C)c1C)CN(Cc1ncco1)Cc1cc(n(C)n1)CSc1cc(c3ccc(F)cc3c1)OCCC2 [Cpd. No. 52]	µL/min/mg	29.8
Cc1c2c(nn1C)CSCc1cc(n(C)n1)CSc1cc(c3ccc(F)cc3c1)OCCCn1c(C(=O)O)c(C(F)(F)F)c3c-2c(Cl)ccc31 [Cpd. No. 24]	µL/min/mg	122
Cc1c(C(=O)O)n2c3ccc(Cl)c(c13)-c1c(nn3c1COCC3)CSCc1cc(n(C)n1)CSc1cc(c3ccc(F)cc3c1)OCCC2 [Cpd. No. 4]	µL/min/mg	19.8
Cc1c(C(=O)O)n2c3ccc(Cl)c(c13)-c1c(nn(C)c1C)CN(S(C)(=O)=O)Cc1cc(n(C)n1)CSc1cc(c3ccc(F)cc3c1)OCCC2 [Cpd. No. 32]	µL/min/mg	10.8
Cc1c2c(nn1C)CSCc1cc(n(C)n1)CSc1cc(c3ccccc3c1)OCCCc1c(C(=O)O)n(C)c3c-2c(Cl)ccc13 [AZD5991, reference compound]	µL/min/mg	16.6
Cc1c(C(=O)O)n2c3ccc(Cl)c(c13)-c1c(nn(C)c1C(F)F)CSCc1cc(n(C)n1)CSc1cc(c3ccc(F)cc3c1)OCCC2 [Cpd. No. 18]	µL/min/mg	22.6

I: COCCN1Cc2cc(n(C)n2)CSc2cc(c3ccc(F)cc3c2)OCCCn2c(C(=O)O)c(C)c3c(c(Cl)ccc32)-c2c(nn3c2COCC3)C1 [Cpd. No. 50]
II: Cc1c(C(=O)O)n2c3ccc(Cl)c(c13)-c1c(nn(C)c1C)CSCc1cc(n(C(C)C)n1)CSc1cc(c3ccc(F)cc3c1)OCCC2 [Cpd. No. 17]
Parameter check: reported microsomal CLint at 5 μM is higher for which label, I or II ? // return label of chosen record
II

1: Cc1c(C(=O)O)n2c3ccc(Cl)c(c13)-c1c(nn(C)c1C(F)F)CN(S(C)(=O)=O)Cc1cc(n(C)n1)CSc1cc(c3ccc(F)cc3c1)OCCC2 [Cpd. No. 45]
2: Cc1c(C(=O)O)n2c3ccc(Cl)c(c13)-c1c(nn3c1COCC3)CN(S(=O)(=O)c1ccccc1)Cc1cc(n(C)n1)CSc1cc(c3ccc(F)cc3c1)OCCC2 [Cpd. No. 29]
Sorting ascending by microsomal CLint at 5 μM, which comes first: 1 or 2 ? // return label of chosen record
1
(1: 12.6 µL/min/mg, 2: 42 µL/min/mg)
